Assay: The drug is tested on Eubacterium ventriosum strain: ATCC27560 for biotransformation. The drug concentrations were measured before and after a 12-h incubation by liquid-chromatography-coupled mass spectrometry (LC–MS)
Type: ADME
Design: dose 2 uM, timepoint 0 vs 12 hours
Details: 2 µM
measurement.label: Bacterial Biotransformation

- compound: "CNC(=C[N+](=O)[O-])NCCSCc1ccc(CN(C)C)o1 [RANITIDINE]"
  obs.value: "Compound metabolized"
- compound: "CCS(=O)(=O)CCn1c([N+](=O)[O-])cnc1C [TINIDAZOLE]"
  obs.value: "Compound metabolized"
- compound: "O=C1C(CC[S+]([O-])c2ccccc2)C(=O)N(c2ccccc2)N1c1ccccc1 (configuration not stated) [SULFINPYRAZONE]"
  obs.value: "Compound NOT metabolized"
- compound: "CN1C[C@H](C(=O)N[C@]2(C)O[C@@]3(O)[C@@H]4CCCN4C(=O)[C@H](Cc4ccccc4)N3C2=O)C=C2c3cccc4[nH]cc(c34)C[C@H]21.CN1C[C@H](C(=O)N[C@]2(C)O[C@@]3(O)[C@@H]4CCCN4C(=O)[C@H](Cc4ccccc4)N3C2=O)C=C2c3cccc4[nH]cc(c34)C[C@H]21.O=C(O)C(O)C(O)C(=O)O [ERGOTAMINE TARTRATE]"
  obs.value: "Compound NOT metabolized"
- compound: "CC(CN1c2ccccc2Sc2ccccc21)N(C)C (configuration not stated) [PROMETHAZINE]"
  obs.value: "Compound NOT metabolized"
- compound: "CN1CCC[C@@H]1CCO[C@](C)(c1ccccc1)c1ccc(Cl)cc1.O=C(O)/C=C/C(=O)O [CLEMASTINE FUMARATE]"
  obs.value: "Compound NOT metabolized"
- compound: "O=C(O)CCC(=O)O.O=C(O[C@H]1CN2CCC1CC2)N1CCc2ccccc2[C@@H]1c1ccccc1 [SOLIFENACIN SUCCINATE]"
  obs.value: "Compound NOT metabolized"
- compound: "CCCc1nc(C(C)(C)O)c(C(=O)OCc2oc(=O)oc2C)n1Cc1ccc(-c2ccccc2-c2nnn[nH]2)cc1 [OLMESARTAN MEDOXOMIL]"
  obs.value: "Compound metabolized"
- compound: "C#C[C@]1(O)CC[C@H]2[C@@H]3CCC4=Cc5oncc5C[C@]4(C)[C@H]3CC[C@@]21C [DANAZOL]"
  obs.value: "Compound metabolized"
- compound: "CC(=O)CC(c1ccccc1)c1c(O)c2ccccc2oc1=O (configuration not stated) [WARFARIN]"
  obs.value: "Compound NOT metabolized"
- compound: "CC(=O)O[C@]1(C(C)=O)CC[C@H]2[C@@H]3C=C(Cl)C4=CC(=O)[C@@H]5C[C@@H]5[C@]4(C)[C@H]3CC[C@@]21C [CYPROTERONE ACETATE]"
  obs.value: "Compound NOT metabolized"
- compound: "O=C(O)CCc1nc(-c2ccccc2)c(-c2ccccc2)o1 [OXAPROZIN]"
  obs.value: "Compound NOT metabolized"
- compound: "O=C(O)COCCN1CCN(C(c2ccccc2)c2ccc(Cl)cc2)CC1 (configuration not stated) [CETIRIZINE]"
  obs.value: "Compound NOT metabolized"
- compound: "Nc1c2c(nc3ccccc13)CCCC2 [TACRINE]"
  obs.value: "Compound NOT metabolized"
- compound: "COc1ccc2c3c1O[C@H]1C[C@@H](O)C=C[C@@]31CCN(C)C2 [GALANTAMINE]"
  obs.value: "Compound NOT metabolized"
- compound: "COc1ccc2cc([C@H](C)C(=O)O)ccc2c1 [NAPROXEN]"
  obs.value: "Compound NOT metabolized"
- compound: "Nc1nc(NC2CC2)c2ncn([C@H]3C=C[C@@H](CO)C3)c2n1.Nc1nc(NC2CC2)c2ncn([C@H]3C=C[C@@H](CO)C3)c2n1.O=S(=O)(O)O [ABACAVIR SULFATE]"
  obs.value: "Compound NOT metabolized"
- compound: "CC(=O)Oc1ccc(C(c2ccc(OC(C)=O)cc2)c2ccccn2)cc1 [BISACODYL]"
  obs.value: "Compound metabolized"
- compound: "CO[C@]12C[C@@H](COC(=O)c3cncc(Br)c3)CN(C)[C@@H]1Cc1cn(C)c3cccc2c13 [NICERGOLINE]"
  obs.value: "Compound NOT metabolized"
- compound: "CC(C)(C)NC[C@H](O)COc1nsnc1N1CCOCC1.O=C(O)/C=C\\C(=O)O [TIMOLOL MALEATE]"
  obs.value: "Compound NOT metabolized"
- compound: "CNC(=C[N+](=O)[O-])NCCSCc1csc(CN(C)C)n1 [NIZATIDINE]"
  obs.value: "Compound metabolized"
- compound: "CN1CCOC(c2ccccc2)c2ccccc2C1 (configuration not stated) [NEFOPAM]"
  obs.value: "Compound NOT metabolized"
- compound: "CC(=O)CCCCn1c(=O)c2c(ncn2C)n(C)c1=O [PENTOXIFYLLINE]"
  obs.value: "Compound NOT metabolized"
- compound: "CN1C(=O)CCS(=O)(=O)C1c1ccc(Cl)cc1 (configuration not stated) [CHLORMEZANONE]"
  obs.value: "Compound NOT metabolized"
- compound: "Cc1cc2c(cc1S(N)(=O)=O)S(=O)(=O)CCC2"
  obs.value: "Compound NOT metabolized"
- compound: "N#Cc1ccc2[nH]cc(CCCCN3CCN(c4ccc5oc(C(N)=O)cc5c4)CC3)c2c1 [VILAZODONE]"
  obs.value: "Compound NOT metabolized"
- compound: "CN1CCC(=C2c3ccccc3CCc3cccnc32)CC1.O=C(O)/C=C\\C(=O)O.O=C(O)/C=C\\C(=O)O [AZATADINE MALEATE]"
  obs.value: "Compound NOT metabolized"
- compound: "COC(=O)Nc1nc2ccc(C(=O)c3ccccc3)cc2[nH]1 [MEBENDAZOLE]"
  obs.value: "Compound NOT metabolized"
- compound: "CCCc1nc2c(C)cc(-c3nc4ccccc4n3C)cc2n1Cc1ccc(-c2ccccc2C(=O)O)cc1"
  obs.value: "Compound NOT metabolized"
- compound: "COC1=C(OC)C(=O)C(CCCCCCCCCCO)=C(C)C1=O [IDEBENONE]"
  obs.value: "Compound NOT metabolized"
- compound: "CC#CCn1c(N2CCC[C@@H](N)C2)nc2c1c(=O)n(Cc1nc(C)c3ccccc3n1)c(=O)n2C [LINAGLIPTIN]"
  obs.value: "Compound NOT metabolized"
- compound: "O=C1CN2Cc3c(ccc(Cl)c3Cl)N=C2N1 [ANAGRELIDE]"
  obs.value: "Compound NOT metabolized"
